test system: OVCAR-5 ovarian; experiment: NCI tumour cell line growth inhibition, 48 h
List of TGI values.

[
  {
    "compound": "O=C(O)COc1cc(-c2ccccc2)nc2ccc(F)cc12",
    "TGI": "> 100 µM"
  },
  {
    "compound": "COC(=O)C(=O)C(C(=O)OC)C(=O)C(=O)Nc1ccccc1C(N)=O (configuration not stated)",
    "TGI": "> 100 µM"
  },
  {
    "compound": "Cn1c(/C=C/CO)c(CO)c2c1C(=O)C=C(N1CC1)C2=O",
    "TGI": "< 0.0273 µM"
  },
  {
    "compound": "CCCCCCCC/C=C\\CCCCCCC/C=C1/C[C@](/C=C/C(=O)OC)(CO)OC1=O",
    "TGI": "20.3 µM"
  },
  {
    "compound": "COc1ccc(-c2c(C#N)c(N)nc3c2COc2ccc(F)cc2-3)cc1OC",
    "TGI": "33.6 µM"
  },
  {
    "compound": "Cc1n[nH]c(=O)n1-c1cccnc1",
    "TGI": "> 100 µM"
  },
  {
    "compound": "NN/C(=N\\S(=O)(=O)c1ccc(-c2ccccn2)s1)Nc1ccc(Cl)cc1",
    "TGI": "> 100 µM"
  }
]

Source listed as PubChem BioAssay (NCI).
